From: patent US20180044434A1

Biological target: T1, full-length recombinant human PAD4 (human, UniProt Q9UM07 1-663)
T1 construct: Full-length recombinant; also called peptidylarginine deiminase 4
T1 sequence (Q9UM07 whole entry): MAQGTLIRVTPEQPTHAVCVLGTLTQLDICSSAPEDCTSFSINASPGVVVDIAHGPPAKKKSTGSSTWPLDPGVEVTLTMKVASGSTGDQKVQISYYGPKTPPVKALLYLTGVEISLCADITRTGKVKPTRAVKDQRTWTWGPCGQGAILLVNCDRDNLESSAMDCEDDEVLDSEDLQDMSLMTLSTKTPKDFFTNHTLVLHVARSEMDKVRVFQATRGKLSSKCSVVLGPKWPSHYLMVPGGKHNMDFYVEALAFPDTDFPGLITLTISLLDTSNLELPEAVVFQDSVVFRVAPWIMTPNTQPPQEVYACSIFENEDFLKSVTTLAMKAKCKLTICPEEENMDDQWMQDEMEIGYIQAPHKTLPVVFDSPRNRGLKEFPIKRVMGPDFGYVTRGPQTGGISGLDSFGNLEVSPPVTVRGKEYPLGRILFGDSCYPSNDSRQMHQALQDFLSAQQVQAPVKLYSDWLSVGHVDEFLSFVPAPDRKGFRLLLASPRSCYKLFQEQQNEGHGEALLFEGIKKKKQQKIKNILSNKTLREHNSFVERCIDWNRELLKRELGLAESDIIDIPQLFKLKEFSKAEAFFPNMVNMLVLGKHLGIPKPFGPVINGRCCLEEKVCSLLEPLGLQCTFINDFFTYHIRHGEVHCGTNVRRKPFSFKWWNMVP
Experiment: ELISA, immobilized human PAD4
Please go through the items and note down their O.D. 490/630 at 0.0625 µg/mL.
Give bare numbers.

Illustrative cases are given below, each with its answer.
{"BINDER": "humanized anti-PAD4 antibody derived from H7, VH H4.15 / VL L4.06 (antibody, IgG1, V domains shown, IgG1 kappa; also called H7 H4.15/L4.06) VH: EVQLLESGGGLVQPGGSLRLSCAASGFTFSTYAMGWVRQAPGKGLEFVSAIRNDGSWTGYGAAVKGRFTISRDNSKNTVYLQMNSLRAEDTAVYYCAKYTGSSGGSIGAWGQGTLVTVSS VL: SYELTQPPSVSVSPGQTARITCSGGSGRYYYGWYQQKPGQAPVTVIYSSTHRPSGIPERFSGSYSGNTTTLTISGVQAEDEADYYCGTADSSSYVFGGGTKLTVLG", "READOUT VALUE": 1.83}
{"BINDER": "humanized anti-PAD4 antibody derived from H7, VH H4.32 / VL L4.15 (antibody, IgG1, V domains shown, IgG1 kappa; also called H7 H4.32/L4.15) VH: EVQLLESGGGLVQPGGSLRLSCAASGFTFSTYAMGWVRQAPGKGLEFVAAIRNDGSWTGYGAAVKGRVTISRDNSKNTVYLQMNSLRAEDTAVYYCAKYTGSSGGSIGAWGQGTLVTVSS VL: SYELTQPPSVSVSPGQTARITCSGGSGRYYYGWYQQKPGQAPVTVIYSSTHRPSGIPERFSGSNSGNTTTLTISGVQAEDEADYYCGTADSSSYVFGGGTKLTVLG", "READOUT VALUE": 1.94}
{"BINDER": "humanized anti-PAD4 antibody derived from H7, VH H4.15 / VL L4.00 (antibody, IgG1, V domains shown, IgG1 kappa; also called H7 H4.15/L4.00) VH: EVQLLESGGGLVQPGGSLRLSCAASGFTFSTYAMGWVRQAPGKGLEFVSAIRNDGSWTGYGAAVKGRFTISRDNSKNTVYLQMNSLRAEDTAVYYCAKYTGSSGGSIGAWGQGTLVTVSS VL: SYELTQPPSVSVSPGQTARITCSGGSGRYYYGWYQQKPGQAPVLVIYSSTHRPSGIPERFSGSSSGTTVTLTISGVQAEDEADYYCGTADSSSYVFGGGTKLTVLG", "READOUT VALUE": 1.71}

Q: // O.D. 490/630 at 0.0625 µg/mL lookup, key: humanized anti-PAD4 antibody derived from H7, VH H4.15 / VL L4.17 (antibody, IgG1, V domains shown, IgG1 kappa; also called H7 H4.15/L4.17) VH: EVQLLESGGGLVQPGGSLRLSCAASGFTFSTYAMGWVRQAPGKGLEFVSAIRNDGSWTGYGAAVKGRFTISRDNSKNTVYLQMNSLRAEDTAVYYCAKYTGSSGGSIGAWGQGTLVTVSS VL: SYELTQPPSVSVSPGQTARITCSGGSGRYYYGWYQQKPGQAPVTVIYSSTHRPSGIPERFSGSTSGNTTTLTISGVQAEDEADYYCGTADSSSYVFGGGTKLTVLG
Result: 1.9
